Reference source for all entries: paper PMC6272992

system: WI 38 (normal fibroblast cells); test: SRB cell growth assay, normal cells WI 38; format: cell-based, human; settings: Homo sapiens, 48 h exposure, non-cytotoxic = IC50 > 100 μg/mL
IC50 strictly less than 30 µg/mL = yes. Otherwise no.

Some entries whose results are on file:
smiles_string=CCOC(=O)COc1nc(-c2ccc(Cl)cc2Cl)cc(-c2ccc(F)cc2)c1C#N label_class=no
smiles_string=Cc1cc(C)n(-c2nc(-c3ccc(Cl)cc3Cl)cc(-c3ccc(F)cc3)c2C#N)n1 label_class=no
smiles_string=N#Cc1c(N)c2c(-c3ccc(F)cc3)cc(-c3ccc(Cl)cc3Cl)nc2[nH]c1=O label_class=yes
smiles_string=N#Cc1c(-c2ccc(F)cc2)cc(-c2ccc(Cl)cc2Cl)nc1NN label_class=no
smiles_string=N#Cc1c(-c2ccc(F)cc2)cc(-c2ccc(Cl)cc2Cl)nc1OCC(=O)NN label_class=no
smiles_string=N#Cc1c(-c2ccc(F)cc2)cc(-c2ccc(Cl)cc2Cl)nc1NN=C1C(=O)Nc2ccccc21 label_class=no
smiles_string=Nc1nnc2[nH]c(-c3ccc(Cl)cc3Cl)cc(-c3ccc(F)cc3)c1-2 label_class=yes
smiles_string=N#Cc1c(-c2ccc(F)cc2)cc(-c2ccc(Cl)cc2Cl)nc1NCc1ccc2c(c1)OCO2 label_class=yes

Please check: IC50 for `N#Cc1c(-c2ccc(F)cc2)cc(-c2ccc(Cl)cc2Cl)nc1C(C#N)C#N` , strictly under 30 µg/mL or not? no

Please check: IC50 for `N#Cc1c(-c2ccc(F)cc2)cc(-c2ccc(Cl)cc2Cl)nc1OCC(=O)NN=Cc1ccc(F)cc1` , strictly under 30 µg/mL or not? yes
